pKi listing for selected compounds.
Target: pAPN (porcine kidney alanine aminopeptidase, EC 3.4.11.2) (Sus scrofa, UniProt P15145)
Construct: gene ANPEP; commercial enzyme from porcine kidney (Sigma Aldrich), native purification, lyophilized powder
Sequence (P15145 2-963): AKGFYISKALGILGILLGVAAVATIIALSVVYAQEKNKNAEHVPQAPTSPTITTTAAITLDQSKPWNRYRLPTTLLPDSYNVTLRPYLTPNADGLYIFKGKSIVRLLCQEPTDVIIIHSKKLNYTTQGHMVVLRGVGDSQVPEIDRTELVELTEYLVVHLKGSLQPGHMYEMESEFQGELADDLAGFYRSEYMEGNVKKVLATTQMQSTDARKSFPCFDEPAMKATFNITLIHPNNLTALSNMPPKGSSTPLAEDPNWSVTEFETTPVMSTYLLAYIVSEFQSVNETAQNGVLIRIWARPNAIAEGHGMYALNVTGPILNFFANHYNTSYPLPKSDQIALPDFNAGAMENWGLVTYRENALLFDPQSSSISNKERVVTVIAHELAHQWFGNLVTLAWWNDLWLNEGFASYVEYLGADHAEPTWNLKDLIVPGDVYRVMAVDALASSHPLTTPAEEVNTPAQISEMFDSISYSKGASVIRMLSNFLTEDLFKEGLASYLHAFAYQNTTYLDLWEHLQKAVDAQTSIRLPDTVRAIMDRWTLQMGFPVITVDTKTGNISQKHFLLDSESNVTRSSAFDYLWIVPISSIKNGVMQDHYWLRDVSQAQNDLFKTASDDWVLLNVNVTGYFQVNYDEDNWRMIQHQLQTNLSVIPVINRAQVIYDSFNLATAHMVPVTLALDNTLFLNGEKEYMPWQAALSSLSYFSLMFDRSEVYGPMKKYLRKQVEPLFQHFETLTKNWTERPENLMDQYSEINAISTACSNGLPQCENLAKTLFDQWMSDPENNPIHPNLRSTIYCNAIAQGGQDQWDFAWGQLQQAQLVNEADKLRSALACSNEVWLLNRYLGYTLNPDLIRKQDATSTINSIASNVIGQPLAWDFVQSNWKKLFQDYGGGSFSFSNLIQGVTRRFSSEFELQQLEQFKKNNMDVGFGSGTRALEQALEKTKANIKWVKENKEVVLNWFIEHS
Assay: fluorogenic assay, Ala-AMC hydrolysis; Ki by Lineweaver-Burk, Dixon, Cheng-Prusoff
Format: biochemical
When answering, recall that pKi equals minus log10 of the concentration in mol/L, and write that number alone.

// worked examples, pKi included
compound | pKi
NC(Cc1ccc(Cl)c(F)c1)P(=O)(O)O (racemic) | 4.83
NC(Cc1cccc(Cl)c1F)P(=O)(O)O (racemic) | 4.07
NC(Cc1cc(F)c(F)cc1F)P(=O)(O)O (racemic) | 4.11

Proceed to the following item.
Task: Give pAPN (porcine kidney alanine aminopeptidase, EC 3.4.11.2) (Sus scrofa, UniProt P15145) pKi for NC(Cc1ccc(F)c(Cl)c1)P(=O)(O)O (racemic)
Output: 5.16
